- STUDY SYSTEM: human adenosine A2A receptor (Homo sapiens (Human))
- Sequence (P29274 whole entry): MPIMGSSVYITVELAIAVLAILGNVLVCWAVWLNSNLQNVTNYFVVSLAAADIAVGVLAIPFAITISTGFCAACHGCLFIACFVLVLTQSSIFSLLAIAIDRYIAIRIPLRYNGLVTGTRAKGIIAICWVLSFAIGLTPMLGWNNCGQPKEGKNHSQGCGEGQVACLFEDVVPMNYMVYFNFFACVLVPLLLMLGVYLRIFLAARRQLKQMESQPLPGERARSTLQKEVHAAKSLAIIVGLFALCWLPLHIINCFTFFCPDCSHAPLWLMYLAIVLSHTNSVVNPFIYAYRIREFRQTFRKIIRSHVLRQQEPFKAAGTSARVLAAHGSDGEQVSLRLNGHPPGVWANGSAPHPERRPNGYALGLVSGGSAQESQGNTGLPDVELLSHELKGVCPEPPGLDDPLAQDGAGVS
- PROCEDURE DETAILS: Adenosine receptor inhibition binding assay, [3H]ZM241385, HEK293 A2A receptor membranes
- ASSAY CONTEXT: 1 nM [3H]ZM241385, HEK293-hA2A membranes, 25° C., 1 h; Ki from IC50 by Cheng-Prusoff
READOUT KIND: A2A pKi

INSERT INTO assay_data (compound, recorded_number) VALUES
  ('Cc1cc(-c2c(-c3ccccc3)nc(N)n3c(=O)n(C[C@@H]4C[C@H](O)CN4)nc23)cc(C)n1', 8.2),
  ('Cc1cc(-c2c(-c3ccccc3)nc(N)n3c(=O)n(CC4CCCN4)nc23)cc(C)n1 (stereo not shown)', 7.4),
  ('Cc1cc(-c2c(-c3ccccc3)nc(N)n3c(=O)n(C[C@H]4CCCO4)nc23)cc(C)n1', 9.2),
  ('Cc1cc(-c2c(-c3ccccc3)nc(N)n3c(=O)n(Cc4cnc[nH]4)nc23)cc(C)n1', 8.3),
  ('Cc1cc(-c2c(-c3ccccc3)nc(N)n3c(=O)n(Cc4cc(C)on4)nc23)cc(C)n1', 9.2),
  ('Cn1ccnc1Cn1nc2c(-c3cc(CO)nc(C(F)(F)F)c3)c(-c3ccccc3)nc(N)n2c1=O', 10.0),
  ('Cc1ocnc1Cn1nc2c(-c3cc(CO)nc(C(F)(F)F)c3)c(-c3ccccc3)nc(N)n2c1=O', 9.7);

---

- STUDY SYSTEM: human adenosine A1 receptor (Homo sapiens (Human), UniProt P30542)
- Sequence (P30542 whole entry): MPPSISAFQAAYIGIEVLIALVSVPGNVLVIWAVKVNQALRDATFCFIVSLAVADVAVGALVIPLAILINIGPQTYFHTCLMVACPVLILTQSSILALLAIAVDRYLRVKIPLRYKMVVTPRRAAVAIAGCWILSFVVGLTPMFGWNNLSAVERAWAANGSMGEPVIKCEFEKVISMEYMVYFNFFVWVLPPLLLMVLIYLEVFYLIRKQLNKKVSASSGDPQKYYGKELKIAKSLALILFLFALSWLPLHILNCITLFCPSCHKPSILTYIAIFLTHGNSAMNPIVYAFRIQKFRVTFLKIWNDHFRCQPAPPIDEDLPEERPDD
- PROCEDURE DETAILS: Adenosine receptor inhibition binding assay, [3H]DPCPX, A1 receptor membranes
- ASSAY CONTEXT: 1 nM [3H]DPCPX, 25° C., 1 h; Ki from IC50 by Cheng-Prusoff
READOUT KIND: A1 pKi

INSERT INTO measurements (compound, recorded_number) VALUES
  ('Cn1ccnc1Cn1nc2c(-c3cc(Cl)nc(CO)c3)c(-c3ccccc3)nc(N)n2c1=O [Example 1-55]', 7.5),
  ('Cc1cc(-c2c(-c3ccccc3)nc(N)n3c(=O)n(C(CN)C4CCOC4)nc23)cc(C)n1 (stereo not drawn) [Example 2-15]', 5.7),
  ('Cc1cc(-c2c(-c3ccccc3)nc(N)n3c(=O)n(Cc4cc(C)on4)nc23)cc(C)n1 [Example 1-14]', 6.6),
  ('Cc1cc(-c2c(-c3ccccc3)nc(N)n3c(=O)n(C[C@@H]4CC(F)(F)CN4)nc23)cc(C)n1 [Example 2-11]', 6.0),
  ('Cc1cc(-c2c(-c3ccccc3)nc(N)n3c(=O)n(Cc4cnn(C)n4)nc23)cc(C)n1 [Example 1-30]', 6.6),
  ('Cn1ccnc1Cn1nc2c(-c3cc(CO)nc(C(F)(F)F)c3)c(-c3ccccc3)nc(N)n2c1=O [Example 1-67]', 8.0),
  ('Cc1ocnc1Cn1nc2c(-c3cc(CO)nc(C(F)(F)F)c3)c(-c3ccccc3)nc(N)n2c1=O [Example 1-66]', 7.5),
  ('Cc1ocnc1Cn1nc2c(-c3cc(Cl)nc(CO)c3)c(-c3ccc(F)cc3)nc(N)n2c1=O [Example 1-59]', 6.8),
  ('Cc1cc(-c2c(-c3ccccc3)nc(N)n3c(=O)n(Cc4ncoc4C)nc23)cc(C)n1 [Example 1-22]', 7.4),
  ('Cc1cc(-c2c(-c3ccccc3)nc(N)n3c(=O)n(C[C@@H]4CCCO4)nc23)cc(CO)n1 [Example 2-28]', 6.5),
  ('Cc1cc(-c2c(-c3ccccc3)nc(N)n3c(=O)n(Cc4ccn[nH]4)nc23)cc(C)n1 [Example 1-25]', 7.1),
  ('Cc1cc(-c2c(-c3ccccc3)nc(N)n3c(=O)n(CCN(C)c4cn[nH]c4)nc23)cc(C)n1 [Example 3-3]', 5.7),
  ('Nc1nc(-c2ccccc2)c(-c2cc(CO)nc(C(F)(F)F)c2)c2nn(C[C@H]3CCCO3)c(=O)n12 [Example 2-38]', 6.3),
  ('Cc1cc(-c2c(-c3ccccc3)nc(N)n3c(=O)n(C[C@@H]4CCCN4C)nc23)cc(C)n1 [Example 2-8]', 6.8),
  ('Cc1cc(-c2c(-c3ccccc3)nc(N)n3c(=O)n(Cc4nn[nH]c4C)nc23)cc(C)n1 [Example 1-29]', 7.0),
  ('Cc1cc(-c2c(-c3ccccc3)nc(N)n3c(=O)n(Cc4ccn(C)n4)nc23)cc(CO)n1 [Example 1-45]', 7.2),
  ('Cc1ocnc1Cn1nc2c(-c3cc(C)[n+]([O-])c(C)c3)c(-c3ccc(F)cc3)nc(N)n2c1=O [Example 1-37]', 6.8),
  ('Cc1cc(-c2c(-c3ccccc3)nc(N)n3c(=O)n(Cc4nccn4C)nc23)cc(CO)n1 [Example 1-41]', 7.2),
  ('Cc1cc(-c2c(-c3ccccc3)nc(N)n3c(=O)n(C[C@H]4CCCN4C)nc23)cc(C)n1 [Example 2-7]', 7.4),
  ('Cc1cc(-c2c(-c3ccccc3)nc(N)n3c(=O)n(CC4CCCN4)nc23)cc(C)n1 (stereo not drawn) [Example 2-5]', 6.1),
  ('Nc1nc(-c2ccccc2)c(-c2cc(Cl)nc(CO)c2)c2nn(C[C@H]3CCCO3)c(=O)n12 [Example 2-32]', 6.6),
  ('Cc1cc(-c2c(-c3ccccc3)nc(N)n3c(=O)n(Cc4cocn4)nc23)cc(C)n1 [Example 1-10]', 6.8),
  ('Cc1cc(-c2c(-c3ccccc3)nc(N)n3c(=O)n(CC4CCCN4Cc4ccccc4CN)nc23)cc(C)n1 (stereo not drawn) [Example 3-4]', 6.3),
  ('Cc1cc(-c2c(-c3ccc(F)cc3)nc(N)n3c(=O)n(Cc4nccn4C)nc23)cc(CO)n1 [Example 1-50]', 6.5),
  ('Cc1cc(-c2c(-c3ccccc3)nc(N)n3c(=O)n(C[C@H]4C[C@@H](F)CN4)nc23)cc(C)n1 [Example 2-19]', 6.2),
  ('Cc1cc(-c2c(-c3ccc(F)cc3)nc(N)n3c(=O)n(Cc4nc(C)oc4C)nc23)cc(C)n1 [Example 1-32]', 7.0),
  ('Cc1cc(-c2c(-c3ccccc3)nc(N)n3c(=O)n(CCc4ncc[nH]4)nc23)cc(C)n1 [Example 1-3]', 5.9),
  ('COc1cc(-c2c(-c3ccccc3)nc(N)n3c(=O)n(Cc4ncoc4C)nc23)cc(CO)n1 [Example 1-60]', 6.8),
  ('Cc1cc(-c2c(-c3ccccc3)nc(N)n3c(=O)n(CCn4cccn4)nc23)cc(C)n1 [Example 1-1]', 6.2);
